Give remaining activity at 25 µM for every item shown.
# TARGET_UNDER_TEST: WIZ protein (HiBit-WIZ fusion protein) (Homo sapiens, UniProt O95785+Q96SW2)
# Construct: expressed in transfected cells
# Sequence (O95785 whole entry, the tested form may be a part): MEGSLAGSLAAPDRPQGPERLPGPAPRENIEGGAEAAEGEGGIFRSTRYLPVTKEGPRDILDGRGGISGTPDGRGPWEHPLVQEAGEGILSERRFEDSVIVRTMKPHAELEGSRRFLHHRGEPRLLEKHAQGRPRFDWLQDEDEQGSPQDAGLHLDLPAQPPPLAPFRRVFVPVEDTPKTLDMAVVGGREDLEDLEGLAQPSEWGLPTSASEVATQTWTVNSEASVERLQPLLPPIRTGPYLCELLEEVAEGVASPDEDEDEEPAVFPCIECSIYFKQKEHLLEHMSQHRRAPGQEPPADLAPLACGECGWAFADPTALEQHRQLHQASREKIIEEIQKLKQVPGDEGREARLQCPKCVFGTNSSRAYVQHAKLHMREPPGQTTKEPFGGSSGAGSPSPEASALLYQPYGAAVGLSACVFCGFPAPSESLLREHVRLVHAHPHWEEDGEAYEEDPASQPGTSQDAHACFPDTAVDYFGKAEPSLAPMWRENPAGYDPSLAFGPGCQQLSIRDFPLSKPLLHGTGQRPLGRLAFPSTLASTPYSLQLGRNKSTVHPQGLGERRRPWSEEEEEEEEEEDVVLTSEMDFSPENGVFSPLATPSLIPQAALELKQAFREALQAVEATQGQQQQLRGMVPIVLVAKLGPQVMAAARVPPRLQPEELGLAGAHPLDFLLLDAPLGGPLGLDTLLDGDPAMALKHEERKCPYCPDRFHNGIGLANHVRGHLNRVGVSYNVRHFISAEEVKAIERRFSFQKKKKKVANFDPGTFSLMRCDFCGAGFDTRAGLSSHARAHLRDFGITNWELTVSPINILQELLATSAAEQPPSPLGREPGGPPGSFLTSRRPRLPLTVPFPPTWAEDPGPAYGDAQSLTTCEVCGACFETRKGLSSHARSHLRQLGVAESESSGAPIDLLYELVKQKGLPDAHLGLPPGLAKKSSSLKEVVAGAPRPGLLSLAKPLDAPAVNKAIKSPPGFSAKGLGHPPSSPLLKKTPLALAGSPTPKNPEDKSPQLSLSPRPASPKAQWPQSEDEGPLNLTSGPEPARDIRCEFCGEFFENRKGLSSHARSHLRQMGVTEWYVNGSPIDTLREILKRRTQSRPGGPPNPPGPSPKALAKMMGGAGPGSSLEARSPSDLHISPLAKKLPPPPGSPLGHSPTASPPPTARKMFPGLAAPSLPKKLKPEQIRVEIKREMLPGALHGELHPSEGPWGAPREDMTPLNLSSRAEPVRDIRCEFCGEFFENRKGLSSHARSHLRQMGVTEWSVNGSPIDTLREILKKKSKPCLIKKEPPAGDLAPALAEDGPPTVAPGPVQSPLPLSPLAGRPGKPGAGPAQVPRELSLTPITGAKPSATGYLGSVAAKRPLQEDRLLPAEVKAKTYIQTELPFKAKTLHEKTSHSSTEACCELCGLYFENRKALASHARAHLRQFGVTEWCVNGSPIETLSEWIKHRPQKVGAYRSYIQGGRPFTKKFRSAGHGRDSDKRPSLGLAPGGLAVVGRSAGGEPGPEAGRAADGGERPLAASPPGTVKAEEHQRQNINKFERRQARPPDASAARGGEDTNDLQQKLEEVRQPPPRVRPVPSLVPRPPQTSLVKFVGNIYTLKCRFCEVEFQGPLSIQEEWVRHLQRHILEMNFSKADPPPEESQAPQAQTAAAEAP
# Sequence (Q96SW2 whole entry, the tested form may be a part): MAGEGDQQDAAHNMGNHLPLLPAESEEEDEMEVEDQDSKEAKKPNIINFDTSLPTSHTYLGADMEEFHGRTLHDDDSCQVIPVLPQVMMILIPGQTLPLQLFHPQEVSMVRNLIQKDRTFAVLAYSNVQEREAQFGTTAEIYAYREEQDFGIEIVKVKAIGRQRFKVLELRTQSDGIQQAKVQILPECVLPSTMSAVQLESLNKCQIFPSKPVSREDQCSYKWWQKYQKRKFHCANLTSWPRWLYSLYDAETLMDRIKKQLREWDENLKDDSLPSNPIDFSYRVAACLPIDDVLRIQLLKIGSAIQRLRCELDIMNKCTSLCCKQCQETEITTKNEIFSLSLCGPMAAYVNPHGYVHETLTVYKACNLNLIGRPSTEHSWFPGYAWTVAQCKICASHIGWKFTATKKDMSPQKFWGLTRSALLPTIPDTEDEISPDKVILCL
# Sequence (Q16531 whole entry partner, the tested form may be a part): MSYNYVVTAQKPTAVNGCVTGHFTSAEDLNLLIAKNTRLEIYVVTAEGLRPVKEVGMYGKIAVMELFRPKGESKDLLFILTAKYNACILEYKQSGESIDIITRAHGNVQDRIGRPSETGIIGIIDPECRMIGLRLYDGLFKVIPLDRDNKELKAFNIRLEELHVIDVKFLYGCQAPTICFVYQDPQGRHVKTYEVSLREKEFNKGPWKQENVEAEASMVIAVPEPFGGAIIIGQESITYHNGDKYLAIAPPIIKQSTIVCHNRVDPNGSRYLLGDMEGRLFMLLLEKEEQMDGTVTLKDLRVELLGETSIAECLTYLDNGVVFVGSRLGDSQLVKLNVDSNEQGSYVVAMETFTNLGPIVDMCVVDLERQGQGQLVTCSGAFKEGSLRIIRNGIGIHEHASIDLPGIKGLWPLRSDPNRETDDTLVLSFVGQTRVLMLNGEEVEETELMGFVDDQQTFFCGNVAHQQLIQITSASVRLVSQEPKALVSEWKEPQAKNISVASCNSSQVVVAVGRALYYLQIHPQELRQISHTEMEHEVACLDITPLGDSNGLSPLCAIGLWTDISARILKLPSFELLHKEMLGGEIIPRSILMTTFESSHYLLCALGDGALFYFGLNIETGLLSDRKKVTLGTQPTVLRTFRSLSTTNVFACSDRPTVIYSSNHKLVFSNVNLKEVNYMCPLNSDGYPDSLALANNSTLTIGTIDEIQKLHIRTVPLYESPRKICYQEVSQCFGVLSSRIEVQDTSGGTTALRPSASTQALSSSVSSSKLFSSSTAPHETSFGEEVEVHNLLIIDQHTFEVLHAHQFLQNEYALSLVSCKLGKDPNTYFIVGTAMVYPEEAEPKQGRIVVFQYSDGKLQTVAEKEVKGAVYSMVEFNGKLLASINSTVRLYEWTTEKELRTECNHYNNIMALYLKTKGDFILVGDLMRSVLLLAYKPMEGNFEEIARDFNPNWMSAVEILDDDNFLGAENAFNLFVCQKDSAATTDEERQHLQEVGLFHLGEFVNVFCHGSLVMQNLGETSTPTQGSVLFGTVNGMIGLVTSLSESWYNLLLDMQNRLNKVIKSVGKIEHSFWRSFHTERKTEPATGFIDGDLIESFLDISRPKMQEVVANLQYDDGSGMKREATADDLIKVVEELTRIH
# EXPERIMENT_NOTES: Quantification of WIZ protein levels in HiBit tag fusion protein assay (WIZ HiBit assay in 293T cells)
# Type: cell-based
# TEST_CONTEXT: HEK-293T, DMSO-normalized, curve-fitted percentage of WIZ-HiBit remaining at 25 uM; 293T cells; read-out: WIZ Amax
Provide a numeric answer, followed by its unit.

Examples with answers:
O=C1CCN(c2cnn3ccc(CC4CCN(Cc5cccnc5)C4)cc23)C(=O)N1 (stereo not drawn); 65%
O=C1CCN(c2cnn3ccc(CN4C[C@@H]5C[C@H]4CN5Cc4cccnc4)cc23)C(=O)N1; 94%
O=C1CCN(c2cnn3ccc(CC4CCN(C(=O)OC5CCCCC5)CC4)cc23)C(=O)N1; 58%
O=C1CCN(c2cnn3ccc(CC4CCN(S(=O)(=O)NC5CCCC5)CC4)cc23)C(=O)N1; 49%
O=C1CCN(c2cnn3ccc(CC4CCN(CC5CCC5)C4)cc23)C(=O)N1 (stereo not drawn); 64%

// for each compound below, give its remaining activity at 25 µM
1. C[C@@H]1C[C@H](Cc2ccn3ncc(N4CCC(=O)NC4=O)c3c2)CCN1CC1CCOCC1
2. C[C@H]1CN(CC2CCOCC2)CCN1Cc1ccn2ncc(N3CCC(=O)NC3=O)c2c1

Response:
1. 19%
2. 49%

// for each compound below, give its remaining activity at 25 µM
1. Cc1ccc(F)cc1CN1CCC(Cc2ccn3ncc(N4CCC(=O)NC4=O)c3c2)CC1
2. Cc1c(CC2CCN(CC3CCCCC3)CC2)ccn2ncc(N3CCC(=O)NC3=O)c12
3. CCCN1CCN(Cc2ccn3ncc(N4CCC(=O)NC4=O)c3c2)CC1
4. C[C@H]1CN(Cc2ccn3ncc(N4CCC(=O)NC4=O)c3c2)CCN1CC1CC2(C1)CC(F)(F)C2
5. O=C1CCN(c2cnn3ccc(CN4CCN(Cc5ccncc5)CC4)cc23)C(=O)N1
6. C[C@H]1C[C@H](Cc2ccn3ncc(N4CCC(=O)NC4=O)c3c2)CCN1CC(F)F
7. O=C1CCN(c2cnn3ccc(CC4CCN(C5COC5)CC4)cc23)C(=O)N1

Response:
37%
31%
24%
13%
62%
23%
17%

// for each compound below, give its remaining activity at 25 µM
1. C[C@H]1C[C@H](Cc2ccn3ncc(N4CCC(=O)NC4=O)c3c2)CCN1CC1CCO1 (stereo partly drawn)
2. O=C1CCN(c2cnn3ccc(CN4CCN(CC5CCCCC5)C(=O)C4)cc23)C(=O)N1
3. CC(C)COC(=O)N1CCC(Cc2ccn3ncc(N4CCC(=O)NC4=O)c3c2)CC1

Response:
1. 24%
2. 93%
3. 57%

// for each compound below, give its remaining activity at 25 µM
1. O=C1CCN(c2cnn3ccc(CC4CCN(CC5CCCCC5)C4)cc23)C(=O)N1 (stereo not drawn)
2. O=C1CCN(c2cnn3ccc(CC4CCN(Cc5cc(F)cc(F)c5)CC4)cc23)C(=O)N1
3. CC(c1ccccc1)N1CCC(Cc2ccn3ncc(N4CCC(=O)NC4=O)c3c2)CC1 (stereo not drawn)

Response:
1: 71%; 2: 30%; 3: 24%

###

# TARGET_UNDER_TEST: WIZ protein (HiBit-WIZ fusion protein) (Homo sapiens, UniProt O95785+Q96SW2)
# Construct: expressed in transfected cells
# EXPERIMENT_NOTES: Quantification of WIZ protein levels in HiBit tag fusion protein assay (WIZ HiBit assay in 293T cells)
# Assay type: cell-based
# TEST_CONTEXT: HEK-293T, 100 − Amax, at 25 uM; 293T cells; read-out: % degradation of WIZ (100 − Amax)
hey, just use condition met if measured Dmax at 25 µM is less than 70%, otherwise condition not met

C[C@H]1CN(Cc2ccn3ncc(N4CCC(=O)NC4=O)c3c2)CCN1CCC1CCOCC1; condition not met

Prompt: Determine whether this compound shows Dmax at 25 µM lower than 70% (ties excluded): O=C1CCN(c2cnn3ccc(CN4CCN(CC5CCCOC5)CC4)cc23)C(=O)N1 (centres unmarked)
Response: condition not met

Prompt: Determine whether this compound shows Dmax at 25 µM lower than 70% (ties excluded): CC(C)(C1CCC1)N1CCC(Cc2ccn3ncc(N4CCC(=O)NC4=O)c3c2)CC1
Response: condition not met

Prompt: Determine whether this compound shows Dmax at 25 µM lower than 70% (ties excluded): C[C@H]1C[C@H](Cc2ccn3ncc(N4CCC(=O)NC4=O)c3c2)CCN1S(C)(=O)=O
Response: condition not met

###

Give remaining activity at 25 µM for every item shown.
# TARGET_UNDER_TEST: WIZ protein (HiBit-WIZ fusion protein) (Homo sapiens, UniProt O95785+Q96SW2)
# Construct: expressed in transfected cells
# EXPERIMENT_NOTES: Quantification of WIZ protein levels in HiBit tag fusion protein assay (WIZ HiBit assay in 293T cells)
# Assay type: cell-based
# TEST_CONTEXT: HEK-293T, DMSO-normalized, curve-fitted percentage of WIZ-HiBit remaining at 25 uM; 293T cells; read-out: WIZ Amax
# Description: The HiBit system from Promega was used to develop high-throughput and quantitative assays to measure changes in WIZ protein levels in response to compounds. […] The complementary fragment of Nanoluciferase (known as LgBit, from Promega), was added to the HiBit tag to form an active Nanoluciferase enzyme whose activity can be precisely measured. In this way, the levels of a fusion protein with the HiBit tag can be quantified in cell lysates. […]
Answers are plain numbers, in %.

Examples with answers:
CC1(CN2CCC(Cc3ccn4ncc(N5CCC(=O)NC5=O)c4c3)CC2)COC1 [Example 118]; 36
C[C@@H]1CN(Cc2ccn3ncc(N4CCC(=O)NC4=O)c3c2)CCN1Cc1cccnc1 [Example 215]; 81
O=C1CCN(c2cnn3ccc(CN4CCCNCC4)cc23)C(=O)N1 [Example 248]; 100
Cn1cnc(CN2CCN(Cc3ccn4ncc(N5CCC(=O)NC5=O)c4c3)CC2)c1 [Example 196]; 59
O=C1CCN(c2cnn3ccc(CN4CCN(CC5CCCOC5)CC4)cc23)C(=O)N1 (centres unmarked) [Example 162]; 21
O=C1CCN(c2cnn3ccc(CN4CCN(CCC5CCCCC5)CC4)cc23)C(=O)N1 [Example 187]; 20
CCC(C)S(=O)(=O)N1CCC(Cc2ccn3ncc(N4CCC(=O)NC4=O)c3c2)CC1 (centres unmarked) [Example 86]; 20
C[C@H]1CN(Cc2ccn3ncc(N4CCC(=O)NC4=O)c3c2)CCN1CC1CCC(F)(F)CC1 [Example 207]; 14
CC(C)CN1CC[C@H](Cc2ccn3ncc(N4CCC(=O)NC4=O)c3c2)C[C@@H]1C(F)(F)F (relative stereo) [Example 312]; 56
O=C1CCN(c2cnn3ccc(CC4CCN(Cc5cccc(F)c5)CC4)cc23)C(=O)N1 [Example 22]; 23

// for each molecule below, give its remaining activity at 25 µM
1. O=C1CCN(c2cnn3ccc(CC4CCN(C5CCC5)CC4)cc23)C(=O)N1 [Example 282]
2. C[C@H]1C[C@H](Cc2ccn3ncc(N4CCC(=O)NC4=O)c3c2)CCN1CC(F)(F)F [Example 275]
3. C[C@H]1CN(Cc2ccn3ncc(N4CCC(=O)NC4=O)c3c2)CCN1CC1CCCC1 [Example 212]

Response:
1: 19; 2: 21; 3: 16

Prompt: Please report the recorded remaining activity at 25 µM for C[C@@H]1CN(Cc2ccn3ncc(N4CCC(=O)NC4=O)c3c2)CCN1CC1CCCCC1 [Example 214] .
Response: 35

###

# TARGET_UNDER_TEST: WIZ protein (HiBit-WIZ fusion protein) (Homo sapiens, UniProt O95785+Q96SW2)
# Construct: expressed in transfected cells
# EXPERIMENT_NOTES: Quantification of WIZ protein levels in HiBit tag fusion protein assay (WIZ HiBit assay in 293T cells)
# Format: cell-based
# TEST_CONTEXT: HEK-293T, DMSO-normalized, curve-fitted percentage of WIZ-HiBit remaining at 25 uM; 293T cells; read-out: WIZ Amax
READOUT_KIND: remaining activity at 25 µM (%)
Answers are plain numbers, in %.

O=C1CCN(c2cnn3ccc(CN4CCN5[C@@H](CCS5(=O)=O)C4)cc23)C(=O)N1 [Example 315]; 47
C[C@H]1CN(Cc2ccn3ncc(N4CCC(=O)NC4=O)c3c2)CCN1C1CCOCC1 [Example 330]; 18

// for each molecule below, give its remaining activity at 25 µM
1. CC(C)S(=O)(=O)N1CCN(Cc2ccn3ncc(N4CCC(=O)NC4=O)c3c2)CC1 [Example 185]
2. O=C1CCN(c2cnn3ccc(CC4CCN(Cc5cncc(F)c5)CC4)cc23)C(=O)N1 [Example 33]

Response:
1: 53; 2: 27
